Origin of the recorded values: ChEMBL document CHEMBL5038654

- ASSAY_EXPLANATION: Metabolic stability in rat hepatocytes assessed as hepatic clearance
- Format: ADME, cell-based, Hepatocyte
- Parameters: dose or concentration left out as unconfirmed
PROPERTY_LABEL: CLhep predicted
Your reply should be a number followed by the unit it is expressed in.

Query (compound): CN(C)C(=O)c1c(N)ccc(-c2cnc3c(c2Cl)[C@]2(CC[C@](C)(C(N)=O)C2)CN3)c1F ; field requested: CLhep predicted
18 mL/min/kg

----------
- MEASUREMENT_TARGET: Mitogen-activated protein kinase kinase kinase kinase 1 (Homo sapiens, UniProt Q92918)
- Sequence (Q92918 whole entry): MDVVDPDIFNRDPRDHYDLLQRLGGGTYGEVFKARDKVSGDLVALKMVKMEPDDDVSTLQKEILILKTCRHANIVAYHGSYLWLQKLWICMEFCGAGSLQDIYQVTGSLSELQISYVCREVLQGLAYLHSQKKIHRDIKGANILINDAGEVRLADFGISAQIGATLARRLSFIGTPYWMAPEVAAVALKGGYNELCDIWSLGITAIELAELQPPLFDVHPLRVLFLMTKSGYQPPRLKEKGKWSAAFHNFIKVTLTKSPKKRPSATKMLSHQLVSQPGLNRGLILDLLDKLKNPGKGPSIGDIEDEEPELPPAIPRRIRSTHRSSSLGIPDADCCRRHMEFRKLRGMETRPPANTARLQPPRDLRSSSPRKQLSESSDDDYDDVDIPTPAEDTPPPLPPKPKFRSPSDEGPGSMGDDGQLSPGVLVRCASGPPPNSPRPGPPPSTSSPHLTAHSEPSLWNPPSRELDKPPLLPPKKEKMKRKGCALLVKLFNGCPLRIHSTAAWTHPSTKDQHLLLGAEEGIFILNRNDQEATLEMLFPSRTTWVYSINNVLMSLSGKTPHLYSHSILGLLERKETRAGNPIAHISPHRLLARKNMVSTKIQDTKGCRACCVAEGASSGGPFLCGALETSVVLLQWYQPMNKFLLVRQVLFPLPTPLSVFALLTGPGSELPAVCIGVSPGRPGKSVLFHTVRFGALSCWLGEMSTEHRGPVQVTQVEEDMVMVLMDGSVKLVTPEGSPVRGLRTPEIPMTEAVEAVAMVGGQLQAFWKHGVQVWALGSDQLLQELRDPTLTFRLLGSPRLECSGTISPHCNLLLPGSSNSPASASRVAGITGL
- ASSAY_EXPLANATION: Inhibition of HPK1 in human Jurkat E6.1 cells assessed as SLP76 phosphorylation incubated for 30 mins followed by anti-CD3, biotinylated anti-SLP76 and TMB substrate addition measured after 3 hrs by ELISA assay
- Format: cell-based
PROPERTY_LABEL: IC50 (nM)
Answers are plain numbers, in nM.

Worked cases, answers included:
COMPOUND	MEASUREMENT_TARGET	IC50 (nM)
CN(C)C(=O)c1c(N)ccc(-c2cnc3c(c2Cl)[C@]2(CC[C@](C)(O)C2)CN3)c1F (racemic)	Mitogen-activated protein kinase kinase kinase kinase 1 (Homo sapiens, UniProt Q92918)	2000
CN(C)C(=O)c1c(N)ccc(-c2cnc3c(c2Cl)C2(CCCC2)CN3)c1F	Mitogen-activated protein kinase kinase kinase kinase 1 (Homo sapiens, UniProt Q92918)	1500
CNC(=O)[C@H]1CC[C@@]2(CNc3ncc(-c4ccc(N)c(C(=O)N(C)C)c4F)c(Cl)c32)C1 (racemic)	Mitogen-activated protein kinase kinase kinase kinase 1 (Homo sapiens, UniProt Q92918)	7400

// each compound listed below needs its IC50
1. CN(C)C(=O)c1c(N)ccc(-c2cnc3c(c2Cl)[C@]2(CC[C@@]4(CCCNC4=O)C2)CN3)c1F
2. CN(C)C(=O)c1c(N)ccc(-c2cnc3c(c2Cl)[C@]2(CC[C@](C)(O)CC2)CN3)c1F

1700
3000

----------
- ASSAY_EXPLANATION: Apparent permeability across apical to basolateral side in dog MDCK1 cells at 10 uM by LC-MS/MS analysis
- Type: ADME, cell-based, Canis lupus familiaris
- EXPERIMENTAL_CONDITIONS: MDCK
PROPERTY_LABEL: Papp A→B at 10 µM (×10⁻⁶ cm/s)
Numbers only, in ×10⁻⁶ cm/s.

Worked cases, answers included:
MOLECULE	Papp A→B at 10 µM [×10⁻⁶ cm/s]
CN(C)C(=O)c1c(N)ccc(-c2cnc3c(c2Cl)[C@]2(CC[C@@]4(CCCNC4=O)C2)CN3)c1F	7.1
CN(C)C(=O)c1c(N)ccc(-c2cnc3c(c2Cl)[C@]2(CC[C@H](c4ncn[nH]4)C2)CN3)c1F (racemic)	0.4
CN(C)C(=O)c1c(N)ccc(-c2cnc3c(c2Cl)[C@@]2(CC[C@@](C)(C(N)=O)C2)CN3)c1F	0.4
CN(C)C(=O)c1c(N)ccc(-c2cnc3c(c2Cl)C2(CCCC2)CN3)c1F	23
CN(C)C(=O)c1c(N)ccc(-c2cnc3c(c2Cl)[C@]2(CC[C@H](C(N)=O)C2)CN3)c1F (racemic)	0.2

Turning now to a further record.
Query (molecule): CNC(=O)[C@H]1CC[C@@]2(CNc3ncc(-c4ccc(N)c(C(=O)N(C)C)c4F)c(Cl)c32)C1 (racemic) ; field requested: Papp A→B at 10 µM
0.8

----------
- MEASUREMENT_TARGET: Mitogen-activated protein kinase kinase kinase kinase 1 (Homo sapiens)
- ASSAY_EXPLANATION: Inhibition of HPK1 (unknown origin) followed by anti-GST antibody incubated for 60 mins measured after 1 hr by TR-FRET based LanthaScreen Eu-Kinase binding assay
PROPERTY_LABEL: Ki (nM)
One number for each entry, in nM.

Worked cases, answers included:
COMPOUND	MEASUREMENT_TARGET	UNIT_DESCRIPTOR	ENDPOINT_RESULT
CN(C)C(=O)c1cc(-c2cnc3c(c2)C2(CCCC2)CN3)ccc1N	Mitogen-activated protein kinase kinase kinase kinase 1 (Homo sapiens)	nM	28
CCc1c[nH]c2ncc(-c3ccc(N)c(C(=O)N(C)C)c3F)cc12	Mitogen-activated protein kinase kinase kinase kinase 1 (Homo sapiens)	nM	0.47

Turning now to a further record.
Query (compound): CN(C)C(=O)c1c(N)ccc(-c2cnc3c(c2Cl)[C@]2(CC[C@](C)(C(N)=O)C2)CN3)c1F (racemic) ; field requested: Ki
2
